Recorded protein stability index for the following variants
B1: FCHO1 (parent)
chain: FTSSPSPFSSSSPENVEDSGLDSP

variants of: B1; experiment: protein stability index of a GFP-peptide fusion (GPS, HEK-293T) (PSI 1-6); higher = more stable; conditions: c terminus: a fixed tail appended;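 note: lentivirally expressed fusions sorted by FACS into six bins by GFP to DsRed ratio, PSI derived from sequencing read proportions per bin multiplied by bin number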

# construct sequence, protein stability index
rows = [
    ("FTSSPSPFSSSSPENNEDSGLDSP [V16N]", 1.86),
    ("FTSKPSPFSSSSPENVEDSGLDSP [S4K]", 2.13),
    ("FTSSPSPFSSVSPENVEDSGLDSP [S11V]", 1.77),
    ("FTSSPSPFSSSSPENVEDSGIDSP [L21I]", 2.87),
    ("FTSSPSPFSSSSNENVEDSGLDSP [P13N]", 1.66),
    ("FTSSPSPFSSSSPENVEDSGLDSQ [P24Q]", 2.32),
    ("YTSSPSPFSSSSPENVEDSGLDSP [F1Y]", 1.88),
    ("FTSSPSPFSSSSPENVEDSGLASP [D22A]", 2),
    ("FTSSPSPFSSSSPYNVEDSGLDSP [E14Y]", 1.72),
    ("FTSSPSPFSLSSPENVEDSGLDSP [S10L]", 1.71),
    ("FMSSPSPFSSSSPENVEDSGLDSP [T2M]", 3.48),
    ("FTSSPSPFSSSSPENVEYSGLDSP [D18Y]", 2.27),
    ("FESSPSPFSSSSPENVEDSGLDSP [T2E]", 5.36),
    ("FTSFPSPFSSSSPENVEDSGLDSP [S4F]", 2.9),
    ("FTSSPSPFSSSSPEWVEDSGLDSP [N15W]", 2.39),
    ("ATSSPSPFSSSSPENVEDSGLDSP [F1A]", 5.3),
    ("FTSSPLPFSSSSPENVEDSGLDSP [S6L]", 1.86),
    ("FTSSPSPFSSSSPELVEDSGLDSP [N15L]", 2.01),
    ("FTSSPSPFSSSSPENVEDSGLDSC [P24C]", 2.99),
    ("FTRSPSPFSSSSPENVEDSGLDSP [S3R]", 3.59),
    ("FTSSPSPFSSSSPENEEDSGLDSP [V16E]", 1.81),
    ("FTYSPSPFSSSSPENVEDSGLDSP [S3Y]", 2.85),
]

This collection of values is drawn from the supplement of paper PMC10567573.
